target: Lethal(3)malignant brain tumor-like protein 1 (Homo sapiens) (UniProt Q9Y468); conditions: Plus RIL, 30 uM
Sequence (Q9Y468 whole entry): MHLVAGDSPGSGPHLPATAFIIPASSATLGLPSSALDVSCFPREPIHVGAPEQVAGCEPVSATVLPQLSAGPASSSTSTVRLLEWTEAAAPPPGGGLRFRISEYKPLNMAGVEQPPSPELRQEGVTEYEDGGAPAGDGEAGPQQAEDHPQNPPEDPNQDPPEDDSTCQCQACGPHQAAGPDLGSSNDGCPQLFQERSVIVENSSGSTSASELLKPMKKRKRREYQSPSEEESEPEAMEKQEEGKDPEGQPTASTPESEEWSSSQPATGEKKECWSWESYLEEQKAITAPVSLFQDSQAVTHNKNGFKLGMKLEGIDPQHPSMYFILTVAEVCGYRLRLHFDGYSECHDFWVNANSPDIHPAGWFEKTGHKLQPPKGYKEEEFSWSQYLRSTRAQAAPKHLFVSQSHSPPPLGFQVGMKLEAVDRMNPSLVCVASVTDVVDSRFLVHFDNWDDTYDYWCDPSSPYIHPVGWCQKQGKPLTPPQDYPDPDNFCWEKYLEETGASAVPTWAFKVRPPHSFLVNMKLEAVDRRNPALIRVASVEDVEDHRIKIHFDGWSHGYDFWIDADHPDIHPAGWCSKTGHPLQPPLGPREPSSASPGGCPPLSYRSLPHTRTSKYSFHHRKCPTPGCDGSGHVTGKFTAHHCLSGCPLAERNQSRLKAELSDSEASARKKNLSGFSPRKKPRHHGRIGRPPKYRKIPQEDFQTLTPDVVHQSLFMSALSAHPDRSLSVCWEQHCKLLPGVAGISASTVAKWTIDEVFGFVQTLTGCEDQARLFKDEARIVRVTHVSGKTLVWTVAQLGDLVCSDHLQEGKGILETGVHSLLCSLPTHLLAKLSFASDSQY
QUANTITY: inhibition

COMPOUND: O=C(c1cccc(Br)c1)N1CCC(N2CCCC2)C1 (centres undefined)
RESULT: 18%

COMPOUND: CC(c1cccc(Br)c1)N1CCC(N2CCCC2)CC1 (racemic)
RESULT: 25%

COMPOUND: O=C(O)c1cccc(C(=O)N2CCC(N3CCCC3)CC2)c1
RESULT: 31%

COMPOUND: O=C(c1cccc(Br)c1)N1CCC(N2CCC2)CC1
RESULT: 32%

Consider now this further compound.
Input: Value wanted: inhibition (Lethal(3)malignant brain tumor-like protein 1 (Homo sapiens) (UniProt Q9Y468)) of entry CN(C)C1CCN(C(=O)c2cccc(Br)c2)CC1
Output: 5%

Values from ChEMBL document CHEMBL3217594
